Entries and their measured solubility at 24 h follow.
measurement-protocol: Solubility measurement (DMSO solution precipitation method)
Type: physicochemical
test-conditions: aqueous buffer, kinetic from dmso stock, McIlvaine buffer pH 4.5, 24 h, read-out: solubility pH 4.5

Recorded solubility at 24 h, per entry:
C[C@H](Oc1nc(-c2onc3c2CCC[C@@]32CCCc3sc(N)c(C#N)c32)nc2c1n(C)c(=O)n2[C@@]12COC[C@@H]1C2)[C@@H]1CCCN1C = > 161 µg/mL
CO[C@@H]1C[C@@H]([C@H](C)Oc2nc(-c3onc4c3CCC[C@@]43CCCc4sc(N)c(C#N)c43)nc3c2n(C)c(=O)n3[C@@H]2CCCOC2)N(C)C1 = > 163 µg/mL

Query block: I am curious: what solubility at 24 h value has been reported for CO[C@@H]1C[C@@H]([C@H](C)Oc2nc(-c3onc4c3CCC[C@@]43CCCc4sc(N)c(C#N)c43)nc3c2CN(C2COC2)C[C@]32CCOC2)N(C)C1 ?
Result block: > 167 µg/mL

###

measurement-protocol: Metabolic (microsomal) stability assay, human liver microsomes (HLM)
Type: in vitro ADME
test-conditions: 1 μM test compound, predicted clearance as percent of liver blood flow
experimental-endpoint: HLM QH (%)

Recorded HLM QH, per entry:
CO[C@H]1CCN(C)[C@@H]1[C@H](C)Oc1nc(-c2onc3c2CCC[C@@]32CCCc3sc(N)c(C#N)c32)nc2c1CN(C1COC1)C[C@]21CCOC1 = 61
C[C@H](Oc1nc(-c2onc3c2CCC[C@@]32CCCc3sc(N)c(C#N)c32)nc2c1COC[C@]21CCOC1)[C@@H]1CCCN1C = 31
C[C@H](Oc1nc(-c2onc3c2CCC[C@@]32CCCc3sc(N)c(C#N)c32)nc2c1n(C)c(=O)n2C1CCOCC1)[C@@H]1CCCN1C = 33
CO[C@H]1CCN(C)[C@@H]1[C@H](C)Oc1nc(-c2onc3c2CCC[C@@]32CCCc3sc(N)c(C#N)c32)nc2c1n(C)c(=O)n2[C@@H]1CCCOC1 = 73
C[C@H](Oc1nc(-c2onc3c2CCC[C@@]32CCCc3sc(N)c(C#N)c32)nc2c1n(C)c(=O)n2[C@@H]1CCOC1)[C@@H]1[C@H](F)CCN1C = 49

P. CO[C@H]1C[C@@H]([C@H](C)Oc2nc(-c3onc4c3CCC[C@@]43CCCc4sc(N)c(C#N)c43)nc3c2n(C)c(=O)n3[C@@H]2CCOC2)N(C)C1
Q. CO[C@@H]1C[C@@H]([C@H](C)Oc2nc(-c3onc4c3CCC[C@@]43CCCc4sc(N)c(C#N)c43)nc3c2n(C)c(=O)n3[C@H]2CO[C@@H](C)C2)N(C)C1
Query block: Hi, I'm comparing P with Q and wondering which one has the bigger number for HLM QH. Any idea? # reply format: chosen label
Result block: P

1. C[C@H](Oc1nc(-c2noc3c2CCC[C@@]32CCCc3sc(N)c(C#N)c32)nc2c1CCC21CCOC1)[C@@H]1CCCN1C (stereo partly drawn)
2. CO[C@H]1CCN(C)[C@@H]1[C@H](C)Oc1nc(-c2noc3c2CCC[C@@]32CCCc3sc(N)c(C#N)c32)nc2c1n(C)c(=O)n2[C@@H]1CCOC1
Query block: // pick min by HLM QH: 1 , 2 # reply format: chosen label
Result block: 1

###

Entries and their measured solubility at 24 h follow.
measurement-protocol: Solubility measurement (DMSO solution precipitation method)
Assay type: physicochemical
test-conditions: aqueous buffer, kinetic from dmso stock, McIlvaine buffer pH 4.5, 24 h, read-out: solubility pH 4.5

Recorded solubility at 24 h, per entry:
C[C@H](Oc1nc(-c2onc3c2CCC[C@@]32CCCc3sc(N)c(C#N)c32)nc2c1n(C)c(=O)n2[C@H]1CCC[C@@H]1O)[C@@H]1CCCN1C = > 152 µg/mL
C[C@H](Oc1nc(-c2onc3c2CCC[C@@]32CCCc3sc(N)c(C#N)c32)nc2c1n(C)c(=O)n2C12COC(C1)C2)[C@@H]1CCCN1C = > 150 µg/mL
Cc1nn([C@@H]2CCOC2)c2nc(-c3onc4c3CCC[C@@]43CCCc4sc(N)c(C#N)c43)nc(O[C@@H](C)[C@@H]3CCCN3C)c12 = > 145 µg/mL
C[C@H](Oc1nc(-c2onc3c2CCC[C@@]32CCCc3sc(N)c(C#N)c32)nc2c1n(C)c(=O)n2[C@@H]1CCOC1)[C@@H]1C[C@@H](F)CN1C = > 154 µg/mL
C[C@H](Oc1nc(-c2noc3c2CCC[C@@]32CCCc3sc(N)c(C#N)c32)nc2c1COC[C@]21CCOC1)[C@@H]1CCCN1C = > 142 µg/mL

Please find the next molecule below.
Query block: I am curious: what solubility at 24 h value has been reported for CO[C@H]1CCN(C)[C@@H]1[C@H](C)Oc1nc(-c2onc3c2CCC[C@@]32CCCc3sc(N)c(C#N)c32)nc2c1n(C)c(=O)n2[C@@H]1CCCOC1 ?
Result block: > 164 µg/mL

###

study-target: KRAS (G12D)::SOS1 protein-protein interaction (Homo sapiens (Human), UniProt P01116, G12D)
Sequence (P01116 other isoform, or with tags, fused parts or gaps G12D): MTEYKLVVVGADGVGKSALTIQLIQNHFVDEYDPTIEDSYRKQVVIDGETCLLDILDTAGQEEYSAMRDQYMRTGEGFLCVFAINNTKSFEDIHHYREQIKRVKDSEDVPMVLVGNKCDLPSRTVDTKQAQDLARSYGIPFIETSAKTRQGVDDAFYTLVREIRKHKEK
measurement-protocol: KRAS::SOS1 AlphaScreen binding assay (KRAS G12D)
test-conditions: GDP
pIC50: −log10 of the molar value.
experimental-endpoint: pIC50

Recorded pIC50, per entry:
COCCn1c(=O)n(C)c2c(O[C@@H](C)[C@@H]3CCCN3C)nc(-c3onc4c3CCC[C@@]43CCCc4sc(N)c(C#N)c43)nc21 [I-7] = 8.30
C[C@H](Oc1nc(-c2onc3c2CCC[C@@]32CCCc3sc(N)c(C#N)c32)nc2c1n(C)c(=O)n2[C@@]12COC[C@@H]1C2)[C@@H]1CCCN1C [I-29] = 9.00
C[C@H](Oc1nc(-c2noc3c2CCC[C@@]32CCCc3sc(N)c(C#N)c32)nc2c1cnn2[C@@H]1CCOC1)[C@@H]1CCCN1C [II-4] = 9.00
C[C@@H]1COC[C@H](n2c(=O)n(C)c3c(O[C@@H](C)[C@@H]4CC[C@H](C)N4C)nc(-c4onc5c4CCC[C@@]54CCCc5sc(N)c(C#N)c54)nc32)C1 [I-53] = 9.00

I. C[C@H](Oc1nc(-c2noc3c2CCC[C@@]32CCCc3sc(N)c(C#N)c32)nc2c1CN(C1COC1)C[C@]21CCOC1)[C@@H]1CCCN1C [II-12]
II. C[C@H](Oc1nc(-c2onc3c2CCC[C@@]32CCCc3sc(N)c(C#N)c32)nc2c1n(C)c(=O)n2[C@@H]1CCOC1)[C@@H]1[C@H](F)CCN1C [I-4]
Query block: Hi, I'm comparing I with II and wondering which one has the bigger number for pIC50. Any idea? # reply format: chosen label
Result block: I

###

measurement-protocol: Solubility measurement (DMSO solution precipitation method)
Assay type: physicochemical
test-conditions: aqueous buffer, kinetic from dmso stock, McIlvaine buffer pH 6.8, 24 h, read-out: solubility pH 6.8
experimental-endpoint: solubility at 24 h (µg/mL)

Recorded solubility at 24 h, per entry:
CO[C@H]1C[C@@H]([C@H](C)Oc2nc(-c3onc4c3CCC[C@@]43CCCc4sc(N)c(C#N)c43)nc3c2n(C)c(=O)n3[C@@H]2CCOC2)N(C)C1 = 115
C[C@H](Oc1nc(-c2noc3c2CCC[C@@]32CCCc3sc(N)c(C#N)c32)nc2c1CN(c1ncccn1)[C@@]21CCOC1)[C@@H]1CCCN1C = 23
Cc1cc2c(O[C@@H](C)[C@@H]3CCCN3C)nc(-c3onc4c3CCC[C@@]43CCCc4sc(N)c(C#N)c43)nc2n1[C@@H]1CCOC1 = 44

P. C[C@H](Oc1nc(-c2noc3c2CCC[C@@]32CCCc3sc(N)c(C#N)c32)nc2c1CCC21CCOC1)[C@@H]1CCCN1C (stereo partly drawn)
Q. CCn1c(=O)n([C@@H]2CCCOC2)c2nc(-c3onc4c3CCC[C@@]43CCCc4sc(N)c(C#N)c43)nc(O[C@@H](C)C34CCCN3CCC4)c21
R. CC(C)n1c(=O)n([C@@H]2CCOC2)c2nc(-c3onc4c3CCC[C@@]43CCCc4sc(N)c(C#N)c43)nc(O[C@@H](C)[C@@H]3CCCN3C)c21
Query block: // ranking: key=solubility at 24 h, reverse=True Lab note: record answer as labels in requested order.
Result block: Q, R, P

###

Test system: Ba/F3 cells KRAS G12D
measurement-protocol: Ba/F3 proliferation assay (KRAS G12D)
Format: cell-based
test-conditions: Mus musculus, BaF3, 72 h, AlamarBlue viability
pIC50: −log10 of the molar value.
experimental-endpoint: pIC50

C[C@H](Oc1nc(-c2onc3c2CCC[C@@]32CCCc3sc(N)c(C#N)c32)nc2c1n(C)c(=O)n2[C@@H]1CCOC1)[C@@H]1C[C@@H](F)CN1C [I-22] = 7.66

a. CO[C@H]1CCN(C)[C@@H]1[C@H](C)Oc1nc(-c2noc3c2CCC[C@@]32CCCc3sc(N)c(C#N)c32)nc2c1CN(C1COC1)C[C@]21CCOC1 [II-13]
b. CO[C@@H]1C[C@@H]([C@H](C)Oc2nc(-c3onc4c3CCC[C@@]43CCCc4sc(N)c(C#N)c43)nc3c2n(C)c(=O)n3[C@@H]2CCOC2)N(C)C1 [I-3]
Query block: // pick min by pIC50: a , b # reply format: chosen label
Result block: b
(b: 7.85, a: 8.15)
